- Test system: HBV (HepG2.117 cell line, inducibly HBV producing)
- ASSAY_OVERVIEW: Anti-HBV activity, intracellular HBV DNA by real-time PCR in HepG2.117 cell line
- Format: cell-based, hepatitis B virus
- EXPERIMENTAL_CONTEXT: Hepatitis B virus, HepG2.117, 72 h, HepG2.117 cells, 3 days of treatment
We label by threshold. Values of EC50 strictly beneath 0.7 µM are Met. Values of 0.7 µM and up are Not met.

Take a look at these entries with their results.
# MOLECULE, DISCRETE_LABEL
measured = [
    ("C[C@@H]1Cc2nn3c(c2CN1C(=O)c1ccc(Cl)c(C#N)c1)C(=O)N([C@@H](C)c1ccc(OC(F)F)cc1)C[C@@H]3C (relative stereo) [Compound 1B]", "Not met"),
    ("Cc1nnn(-c2ccc(C(C)N3C[C@@H](C)n4nc5c(c4C3=O)CN(C(=O)c3ccc(Cl)c(Cl)c3)[C@H](C)C5)cc2)n1 (single isomer, unassigned) [Compound 22A]", "Met"),
    ("CN=[S@@](C)(=O)c1ccc([C@@H](C)N2C[C@@H](C)n3nc4c(c3C2=O)CN(C(=O)c2ccc(Cl)c(Cl)c2)[C@H](C)C4)cn1 (relative stereo) [Compound 29B]", "Not met"),
]

Problem: Quick check: EC50 of CN=[S@](C)(=O)c1ccc([C@@H](C)N2C[C@@H](C)n3nc4c(c3C2=O)CN(C(=O)c2ccc(Cl)c(Cl)c2)[C@H](C)C4)cn1 (relative stereo) [Compound 29A] under 0.7 µM?
Result: Not met

Problem: Quick check: EC50 of Cc1ccc(C(C)N2C[C@@H](C)n3nc4c(c3C2=O)CN(C(=O)c2ccc(Cl)c(Cl)c2)[C@H](C)C4)nn1 (single isomer, unassigned) [Compound 6A] under 0.7 µM?
Result: Met
